Every entry's value here was drawn from patent US20260125346A1.

- assayTarget: PI3Kα (p110[H1047R]/p85) kinase (Homo sapiens, UniProt P42336, H1047R)
- Sequence (P42336 whole entry H1047R): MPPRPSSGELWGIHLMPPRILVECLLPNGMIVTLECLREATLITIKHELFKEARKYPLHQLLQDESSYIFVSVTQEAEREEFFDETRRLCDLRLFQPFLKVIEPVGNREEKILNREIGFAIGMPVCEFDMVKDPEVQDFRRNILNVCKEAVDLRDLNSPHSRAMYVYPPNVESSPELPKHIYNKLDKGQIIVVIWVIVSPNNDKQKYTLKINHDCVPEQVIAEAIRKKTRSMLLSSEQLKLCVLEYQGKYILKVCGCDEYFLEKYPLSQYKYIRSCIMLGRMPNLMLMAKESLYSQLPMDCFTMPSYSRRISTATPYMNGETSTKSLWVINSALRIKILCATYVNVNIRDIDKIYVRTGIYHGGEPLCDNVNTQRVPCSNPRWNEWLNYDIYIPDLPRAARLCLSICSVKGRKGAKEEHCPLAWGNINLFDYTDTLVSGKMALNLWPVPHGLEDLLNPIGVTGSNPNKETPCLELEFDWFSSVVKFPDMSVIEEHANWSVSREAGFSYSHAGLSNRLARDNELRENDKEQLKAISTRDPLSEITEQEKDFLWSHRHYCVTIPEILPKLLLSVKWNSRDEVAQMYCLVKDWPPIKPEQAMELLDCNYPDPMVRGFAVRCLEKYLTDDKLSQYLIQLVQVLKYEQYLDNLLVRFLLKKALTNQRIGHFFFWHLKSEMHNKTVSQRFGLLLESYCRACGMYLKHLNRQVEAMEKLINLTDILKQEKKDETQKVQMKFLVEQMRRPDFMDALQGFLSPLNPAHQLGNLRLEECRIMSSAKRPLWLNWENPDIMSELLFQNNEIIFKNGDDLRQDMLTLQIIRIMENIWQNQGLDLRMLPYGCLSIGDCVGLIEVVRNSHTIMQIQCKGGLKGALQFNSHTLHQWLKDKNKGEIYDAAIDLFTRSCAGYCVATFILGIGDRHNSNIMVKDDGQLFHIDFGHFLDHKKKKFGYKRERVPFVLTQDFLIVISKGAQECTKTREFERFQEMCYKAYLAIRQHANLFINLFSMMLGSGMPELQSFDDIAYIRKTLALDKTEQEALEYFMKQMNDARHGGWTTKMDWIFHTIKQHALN
- Sequence (P27986 whole entry partner): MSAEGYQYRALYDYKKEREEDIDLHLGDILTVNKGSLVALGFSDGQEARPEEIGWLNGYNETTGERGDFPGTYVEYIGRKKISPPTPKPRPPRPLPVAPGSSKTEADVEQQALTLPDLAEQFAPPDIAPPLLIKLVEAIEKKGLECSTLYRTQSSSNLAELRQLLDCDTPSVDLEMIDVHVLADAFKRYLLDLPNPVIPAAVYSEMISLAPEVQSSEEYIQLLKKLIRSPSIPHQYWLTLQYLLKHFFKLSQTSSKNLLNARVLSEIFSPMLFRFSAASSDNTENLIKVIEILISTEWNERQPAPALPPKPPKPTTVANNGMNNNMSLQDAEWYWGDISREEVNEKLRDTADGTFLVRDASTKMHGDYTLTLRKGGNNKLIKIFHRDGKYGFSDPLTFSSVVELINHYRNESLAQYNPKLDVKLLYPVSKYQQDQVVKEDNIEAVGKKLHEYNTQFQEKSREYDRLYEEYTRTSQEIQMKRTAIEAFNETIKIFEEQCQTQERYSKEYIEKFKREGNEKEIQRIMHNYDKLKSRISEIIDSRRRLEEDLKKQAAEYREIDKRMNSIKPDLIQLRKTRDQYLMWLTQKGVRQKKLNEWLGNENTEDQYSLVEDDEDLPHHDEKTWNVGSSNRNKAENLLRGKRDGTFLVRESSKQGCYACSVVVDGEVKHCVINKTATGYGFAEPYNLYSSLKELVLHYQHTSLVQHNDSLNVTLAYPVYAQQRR
- assayExplanation: PI3Kα (p110[H1047R]/p85) kinase ADP-Glo Assay
- Format: biochemical
- appliedConditions: ADP-Glo Assay IC50 ratio, 25 uM ATP
measuredQuantity: selectivity: WT/H1047R

>>> recordedvalue("Cc1cc(C(C)Nc2ccccc2C(=O)O)c2cc(-c3cncnc3)n(C)c(=O)c2c1 (stereo not shown) [Example 61]")
24.6
>>> recordedvalue("Cc1cc(C(C)Nc2ccccc2C(=O)O)c2cc(-c3cccnc3)n(C)c(=O)c2c1 (stereo not shown) [Example 37]")
40.6
>>> recordedvalue("CC(Nc1ccccc1C(=O)O)c1cccc2c(=O)n(C)c(C#Cc3ccccc3)cc12 (stereo not shown) [Example 21]")
11.1
>>> recordedvalue("Cc1cc(C(C)Nc2ccccc2C(=O)O)c2cc(C3=CCN(c4ccccc4)CC3)n(C)c(=O)c2c1 (stereo not shown) [Example 46]")
23.0

====

- Tested on: WT cell line SK-BR-3
- assayExplanation: Phospho-AKT (Ser473) Inhibition Assay (HTRF), SK-BR-3
- Format: cell-based
- appliedConditions: Homo sapiens; SK-BR-3, 1 hour treatment; read-out: p-AKT Inhibition assay (S473) IC50 SK-BR-3
measuredQuantity: IC50 (µM)

>>> recordedvalue("Cc1cc([C@@H](C)Nc2ccccc2C(=O)O)c2cc(-c3ccc(-c4cnn(C)c4)cc3)n(C)c(=O)c2c1")
0.814
>>> recordedvalue("Cc1cc(C(C)Nc2ccccc2C(=O)O)c2cc(-c3ccc(F)cc3)n(-c3nccs3)c(=O)c2c1 (stereo not shown)")
5.59
>>> recordedvalue("Cc1cc(C(C)Nc2ccccc2C(=O)O)c2cc(-c3cnn(CC45CC6C[C@H](C4)C[C@H](C6)C5)c3C)n(C)c(=O)c2c1 (stereo partly shown)")
2.84
>>> recordedvalue("Cc1cc(C(C)Nc2ccccc2C(=O)O)c2cc(-c3ccc4nc(C)sc4c3)n(C)c(=O)c2c1 (stereo not shown)")
2.32
>>> recordedvalue("Cc1cc(C(C)Nc2ccccc2C(=O)O)c2cc(-c3cccc(C#N)c3)n(C)c(=O)c2c1 (stereo not shown)")
4.35
>>> recordedvalue("Cc1cc(C(C)Nc2ccccc2C(=O)O)c2cc(C#CC3(O)CCCC3)n(C)c(=O)c2c1 (stereo not shown)")
6.84
>>> recordedvalue("Cc1cc(C(C)Nc2ccccc2C(=O)O)c2cc(-c3ccc4nn(C)cc4c3)n(C)c(=O)c2c1 (stereo not shown)")
2.29
>>> recordedvalue("COc1ccc(-c2cc3c(C(C)Nc4ccccc4C(=O)O)cc(C)cc3c(=O)n2C)cn1 (stereo not shown)")
8.36
>>> recordedvalue("COc1ncc(-c2cc3c(C(C)Nc4ccccc4C(=O)O)cc(C)cc3c(=O)n2C)cc1F (stereo not shown)")
3.16
>>> recordedvalue("Cc1cc(C(C)Nc2ccccc2C(=O)O)c2cc(-c3ccc(F)cc3)n(C3COC3)c(=O)c2c1 (stereo not shown)")
1.36
>>> recordedvalue("Cc1cc(C(C)Nc2ccccc2C(=O)O)c2cc(-c3cccc(F)c3F)n(C)c(=O)c2c1 (stereo not shown)")
2.16
>>> recordedvalue("Cc1cc(C(C)Nc2ccccc2C(=O)O)c2cc(C3=CCN(c4ccccc4)C3)n(C)c(=O)c2c1 (stereo not shown)")
5.34
>>> recordedvalue("Cc1cc(C(C)Nc2ccccc2C(=O)O)c2cc(-c3ccc(-c4cnn(C)c4)cc3)n(C)c(=O)c2c1 (stereo not shown)")
1.7
>>> recordedvalue("Cc1cc(C(C)Nc2ccccc2C(=O)O)c2cc(-c3ccc4c(c3)C3CC3O4)n(C)c(=O)c2c1 (stereo not shown)")
2.53
>>> recordedvalue("Cc1cc(C(C)Nc2ccccc2C(=O)O)c2cc(-c3ccc(C(F)(F)F)cc3)n(C)c(=O)c2c1 (stereo not shown)")
4.52
>>> recordedvalue("Cc1cc(C(C)Nc2ccccc2C(=O)O)c2cc(C#CC3CCCCC3)n(C)c(=O)c2c1 (stereo not shown)")
6.43
>>> recordedvalue("Cc1cc(C(C)Nc2ccccc2C(=O)O)c2cc(-c3ccc(C4(O)CC4)cc3)n(C)c(=O)c2c1 (stereo not shown)")
2.97
>>> recordedvalue("COc1cccc(-c2cc3c(C(C)Nc4ccccc4C(=O)O)cc(C)cc3c(=O)n2C)c1 (stereo not shown)")
3.59
